All values here come from PubChem BioAssay (NCI).

# Test system: CAKI-1 renal
# test summary: NCI-60 one-dose screen, 48 h (100 = growth as untreated, 0 = no growth, -100 = all killed)
# experimental context: 10 µM
About 83,000 compounds went through this panel and 20% of them were active in at least one assay; those are over-represented in the sample as a whole. Calls of active or inactive are those of the source. Rule for the calls: active = growth percent below 10; inactive = the rest.
metric: growth

# compound, assay result
records = [
    ("O=[N+]([O-])c1cc[n+]([O-])c2ccccc12", "-28% (active)"),
    ("O=[P+](O)c1ccccc1", "103% (inactive)"),
    ("CS(=N)(=O)CCC(N)C(=O)O (configuration not stated)", "83.2% (inactive)"),
    ("CCOP(=O)(OCC)/C(C#N)=C/c1ccc(Br)cc1", "76.2% (inactive)"),
    ("O=[N+]([O-])/C=C/c1ccc(Cl)cc1[N+](=O)[O-]", "47.7% (inactive)"),
    ("Cc1cc(C)c(C[N+](C)(C)C)c(C)c1C", "5.45% (active)"),
    ("[Cl][Hg][c]1ccc(Cl)s1", "-53% (active)"),
]
